Data credit: the supplement of paper PMC12645437

Provide the reported log2 fold change of degron read counts of each item.
# system_tested: T1, CRBN, Q96SW2;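 further: pooled lentiviral library of zinc finger degron-EGFP fusions in mCherry-positive Jurkat cells, FACS-sorted after compound exposure, with degron abundance counted by next-generation sequencing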
# T1 chain: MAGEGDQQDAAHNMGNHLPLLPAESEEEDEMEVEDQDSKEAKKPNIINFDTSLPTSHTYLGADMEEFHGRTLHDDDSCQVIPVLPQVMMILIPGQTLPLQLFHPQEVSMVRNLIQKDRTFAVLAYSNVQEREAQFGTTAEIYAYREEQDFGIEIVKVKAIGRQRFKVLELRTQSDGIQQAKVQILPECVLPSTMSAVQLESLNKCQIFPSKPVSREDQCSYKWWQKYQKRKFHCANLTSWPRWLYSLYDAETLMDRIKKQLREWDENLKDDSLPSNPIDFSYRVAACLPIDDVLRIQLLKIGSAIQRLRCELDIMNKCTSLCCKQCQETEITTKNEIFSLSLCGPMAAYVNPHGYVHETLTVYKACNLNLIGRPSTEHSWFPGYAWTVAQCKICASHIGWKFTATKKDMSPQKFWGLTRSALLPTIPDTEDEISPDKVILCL
# test_protocol: log2 fold change of degron read counts, EGFP-low vs EGFP+ sorted cells (limma voom), compound-induced degradation; higher = more compound-induced degradation of the degron-EGFP fusion; degrons are variants of IKZF1/3 zinc finger 2; compound dose not given here
# measurement_conditions: Jurkat; 18 h; compound: compound 19 (5-tert-butyl-thalidomide)
Whole data set: some 8,300 sequences, median “log2 fold change of degron read counts, EGFP-low vs EGFP+ sorted cells (limma voom), compound-induced degradation” near -1.1, cut for the highest 2% near 3.2. The full list was thinned out, with the highest values kept by preference.

Name the recorded log2 fold change of degron read counts of the sequence listed here: FKCPVCGAAFTQKGNLLRHIKL [46F_47K_49P_50V_52G_53A_54A_55F_67L_, Q9UKT9]
1.7

// fetch log2 fold change of degron read counts given entry FFCNICGAPFTQKGNLLRHIKL [46F_47F_49N_50I_52G_53A_54P_55F_67L_, Q9UKT9]
3.82

Please look at this sequence and report its log2 fold change of degron read counts: LFCEICGFCCTQKGNLLRHIKL [46L_47F_49E_50I_52G_53F_54C_55C_67L_, Q9UKT9]
3.37

Give the measured log2 fold change of degron read counts for LQCPICGFSCTQKGNLLRHIKL [46L_47Q_49P_50I_52G_53F_54S_55C_67L_, Q9UKT9]
2.67

Give the value of log2 fold change of degron read counts reported for the following: LTCPICGFSCTQKGNLLRHIKL [46L_47T_49P_50I_52G_53F_54S_55C_67L_, Q9UKT9]
2.51

Input FWCPQCGATFTQKGNLLRHIKL [46F_47W_49P_50Q_52G_53A_54T_55F_67L_, Q9UKT9] , output reported log2 fold change of degron read counts.
-0.373

Given FCCEICGAIFTQKGNLLRHIKL [46F_47C_49E_50I_52G_53A_54I_55F_67L_, Q9UKT9] , respond with its log2 fold change of degron read counts.
1.48

Tell me log2 fold change of degron read counts reported for LYCPICGFECTQKGNLLRHIKL [46L_47Y_49P_50I_52G_53F_54E_55C_67L_, Q9UKT9]
2.78

// Input: LWCEICGFCCTQKGNLLRHIKL [46L_47W_49E_50I_52G_53F_54C_55C_67L_, Q9UKT9] . Output its log2 fold change of degron read counts only.
2.9

Assign log2 fold change of degron read counts to the following record: FMCEICGAIFTQKGNLLRHIKL [46F_47M_49E_50I_52G_53A_54I_55F_67L_, Q9UKT9]
-1.18

Tell me its log2 fold change of degron read counts given FMCNQCGHWFTQKGNLLRHIKL [46F_47M_49N_50Q_52G_53H_54W_55F_67L_, Q9UKT9] as the entry.
-2.24

Tell me its log2 fold change of degron read counts given FQCEICGAIFTQKGNLLRHIKL [46F_47Q_49E_50I_52G_53A_54I_55F_67L_, Q9UKT9] as the entry.
-0.255

Tell me log2 fold change of degron read counts reported for LWCPICGFSCTQKGNLLRHIKL [46L_47W_49P_50I_52G_53F_54S_55C_67L_, Q9UKT9]
3.31

Please report log2 fold change of degron read counts for the following sequence: LQCPICGFWCTQKGNLLRHIKL [46L_47Q_49P_50I_52G_53F_54W_55C_67L_, Q9UKT9]
0.033

Find the measured log2 fold change of degron read counts of LYCPICGFSCTQKGNLLRHIKL [46L_47Y_49P_50I_52G_53F_54S_55C_67L_, Q9UKT9] and report it.
3.73
